measurement-target: HLA-A*02:01 (Homo sapiens, UniProt P04439, D140Y/D185E/D98H/E176V/E277Q/G131W/G231S/I119V/I121R/I166T/I218V/L300P/L318F/N151K/N90K/P208A/P217A/Q86G/Q94H/R138H/R169H/T345S)
protocol-description: HLA-peptide competition binding assay, A*02:01
pIC50: −log10 of the molar value. Where no end group is shown, it is not given here.

# residue-sequence, pIC50
rows = [
    ("HLCGSHLVEA [reference compound]", 5.12),
    ("ALYLVCGER", 5.75),
    ("SHLVEALYLV [reference compound]", 5.67),
    ("LVEALYLVC", 4.93),
    ("LLQVHHSCPL [reference compound]", 5.51),
    ("VAANIVLTV [reference compound]", 6.49),
    ("WMRLLPLLAL [WMRLLPLLAL, reference compound]", 6.18),
    ("RGYYYTPKT", 5.06),
]

====

Form field: IC50 (one value per entry).
measurement-target: HLA-A*02:01 (Homo sapiens, UniProt P04439, D140Y/D185E/D98H/E176V/E277Q/G131W/G231S/I119V/I121R/I166T/I218V/L300P/L318F/N151K/N90K/P208A/P217A/Q86G/Q94H/R138H/R169H/T345S)
protocol-description: HLA-peptide competition binding assay, A*02:01
condition-info: post-translationally modified insulin-derived peptide; radiolabeled ligand competition, purified MHC, two-day incubation, three or more independent experiments; read-out: A*02:01 binding, Modified
Where a SMILES comes first, the peptide text is derived from it. [ ]: non-standard residue; d: D form. Cya = N[C@@H](CS(=O)(=O)O)C(=O)O; Cit = NC(=O)NCCC[C@H](N)C(=O)O

# compound, u, IC50
measured = [
    ("CC(C)C[C@H](NC(=O)[C@H](C)NC(=O)[C@@H](N)CC(C)C)C(=O)N[C@@H](CCC(=O)O)C(=O)NCC(=O)N[C@@H](CO)C(=O)N[C@@H](CC(C)C)C(=O)N[C@@H](CCC(N)=O)C(=O)N[C@@H](CCCCN)C(=O)N[C@@H](CCCNC(N)=O)C(=O)O (H-LALEGSLQK[Cit]-OH)", "µM", 16.4),
    ("CSCC[C@H](NC(=O)[C@H](Cc1c[nH]c2ccccc12)NC(=O)[C@H](CC(C)C)NC(=O)[C@H](C)N)C(=O)N[C@@H](CCCNC(N)=O)C(=O)N[C@@H](CC(C)C)C(=O)N[C@@H](CC(C)C)C(=O)N1CCC[C@H]1C(=O)N[C@@H](CC(C)C)C(=O)N[C@@H](CC(C)C)C(=O)O (H-ALWM[Cit]LLPLL-OH)", "µM", 0.069),
    ("CC(C)C[C@H](NC(=O)[C@H](C)NC(=O)[C@H](CCC(=O)O)NC(=O)[C@@H](NC(=O)[C@H](CC(C)C)NC(=O)[C@H](Cc1c[nH]cn1)NC(=O)[C@H](CO)NC(=O)CNC(=O)[C@@H](N)CS(=O)(=O)O)C(C)C)C(=O)N[C@@H](Cc1ccc(O)cc1)C(=O)O [BGSHLVEALY] (H-[Cya]GSHLVEALY-OH)", "µM", 8.04),
    ("CSCC[C@H](NC(=O)[C@H](Cc1c[nH]c2ccccc12)NC(=O)[C@H](CC(C)C)NC(=O)[C@H](C)N)C(=O)N[C@@H](CCCNC(N)=O)C(=O)N[C@@H](CC(C)C)C(=O)N[C@@H](CC(C)C)C(=O)N1CCC[C@H]1C(=O)N[C@@H](CC(C)C)C(=O)O (H-ALWM[Cit]LLPL-OH)", "µM", 0.028),
    ("CSCC[C@H](NC(=O)[C@H](Cc1c[nH]c2ccccc12)NC(=O)[C@H](CC(C)C)NC(=O)[C@H](C)NC(=O)[C@@H](N)CCSC)C(=O)N[C@@H](CCCNC(N)=O)C(=O)N[C@@H](CC(C)C)C(=O)N[C@@H](CC(C)C)C(=O)N1CCC[C@H]1C(=O)O (H-MALWM[Cit]LLP-OH)", "µM", 2.12),
    ("CC(C)C[C@H](NC(=O)[C@H](Cc1ccc(O)cc1)NC(=O)[C@@H](N)CC(C)C)C(=O)N[C@H](C(=O)N[C@@H](CS)C(=O)NCC(=O)N[C@@H](CCC(=O)O)C(=O)N[C@@H](CCCNC(N)=O)C(=O)NCC(=O)O)C(C)C", "µM", 12.5),
    ("CC(C)C[C@H](NC(=O)[C@@H](N)Cc1ccc(O)cc1)C(=O)N[C@H](C(=O)N[C@@H](CS(=O)(=O)O)C(=O)NCC(=O)N[C@@H](CCC(=O)O)C(=O)N[C@@H](CCCNC(=N)N)C(=O)NCC(=O)N[C@@H](Cc1ccc(O)cc1)C(=O)O)C(C)C [YLVBGERGY] (H-YLV[Cya]GERGY-OH)", "µM", 3.24),
    ("CSCC[C@H](NC(=O)[C@H](Cc1c[nH]c2ccccc12)NC(=O)[C@@H](N)CC(C)C)C(=O)N[C@@H](CCCNC(N)=O)C(=O)N[C@@H](CC(C)C)C(=O)N[C@@H](CC(C)C)C(=O)N1CCC[C@H]1C(=O)N[C@@H](CC(C)C)C(=O)N[C@@H](CC(C)C)C(=O)N[C@@H](C)C(=O)O (H-LWM[Cit]LLPLLA-OH)", "µM", 0.061),
]

====

measurement-target: HLA-A*02:01 (Homo sapiens, UniProt P04439, D140Y/D185E/D98H/E176V/E277Q/G131W/G231S/I119V/I121R/I166T/I218V/L300P/L318F/N151K/N90K/P208A/P217A/Q86G/Q94H/R138H/R169H/T345S)
protocol-description: HLA-peptide competition binding assay, A*02:01
condition-info: read-out: A*02:01 binding (IC50 nM) WT
Where no end group is shown, it is not given here.

# residue-sequence, IC50, nM
measured = [
    ("GSHLVEALYL", 1770),
    ("SLQKRGIVE [SLQKRGIVE]", 5950),
    ("EALYLVCGE", 12000),
    ("LWMRLLPLL [reference compound]", 266),
    ("LVCGERGFFY", 23200),
    ("FVNQHLCGSH", 13200),
    ("YLVCGERGFF", 1400),
    ("VEALYLVCGE", 8870),
    ("LVEALYLVCG", 23300),
    ("REAEDLQVGQ", 23700),
]

====

measurement-target: HLA-B*08:01 (Homo sapiens, UniProt P01889, A93T/A95T/D138N/E176V/E187T/K202T/Q94N/R180D/S35A/V36M/Y33D/Y91F)
protocol-description: biochemical
Where no end group is shown, it is not given here.
property-measured: IC50 (µM)

# residue-sequence, u, value-modifier, assay-result
data = [
    ("FYTPKTRRE [reference compound]", "µM", "=", 13),
    ("ALWMRLLPL [reference compound]", "µM", "=", 0.107),
    ("ALWMRLLPLL", "µM", "=", 0.033),
    ("GERGFFYT", "µM", "=", 1.38),
    ("VCGERGFFYT", "µM", ">", 40),
]

====

Form field: IC50 (one value per entry).
measurement-target: HLA-A*02:01 (Homo sapiens, UniProt P04439, D140Y/D185E/D98H/E176V/E277Q/G131W/G231S/I119V/I121R/I166T/I218V/L300P/L318F/N151K/N90K/P208A/P217A/Q86G/Q94H/R138H/R169H/T345S)
protocol-description: HLA-peptide competition binding assay, A*02:01
condition-info: read-out: A*02:01 binding (IC50 nM) Modified
Where no end group is shown, it is not given here.
property-measured: IC50 (nM)

# residue-sequence, assay-result
rows = [
    ("YLVCGERGYF", 2010),
    ("CGERGYFYT", 26300),
    ("YLVCGERGY", 10800),
]

====

Form field: IC50 (one value per entry).
measurement-target: HLA-A*02:01 (Homo sapiens, UniProt P04439, D140Y/D185E/D98H/E176V/E277Q/G131W/G231S/I119V/I121R/I166T/I218V/L300P/L318F/N151K/N90K/P208A/P217A/Q86G/Q94H/R138H/R169H/T345S)
protocol-description: HLA-peptide competition binding assay, A*02:01
Where no end group is shown, it is not given here.
property-measured: IC50

# residue-sequence, property-measured, assay-result
rows = [
    ("WMRLLPLLA", "IC50", "1.53 µM"),
    ("LLHVHHSCPL [reference compound]", "IC50", "7.84 µM"),
    ("LMGDKSENV [reference compound]", "IC50", "7.37 µM"),
    ("SLTTISTTL [reference compound]", "IC50", "0.237 µM"),
    ("LLSILCIWV [reference compound]", "IC50", "0.734 µM"),
    ("LLSLFSLWL [reference compound]", "IC50", "0.152 µM"),
    ("MALWMRLLPL", "IC50", "1.26 µM"),
]
